These data points were gathered from patent US12024707B2.

Tested on: HT29 RAMS11 overexpressing cells
Experiment: High-throughput viability assay (resazurin), 119 FDA-approved anticancer drugs, RAMS11 overexpressing cells (Clone1, Clone2)
Conditions: OE1 (RAMS11 overexpression clone 1), 1 uM drug, 72 h, vs empty vector control
Counter-ions that a name gives are not always drawn.
Recorded Viability Fold Change for the following molecules
Just the number, please, no unit after it.

molecule	experimental target	observable	recorded number
CCC1=C[C@@H]2CN(C1)Cc1c([nH]c3ccccc13)[C@@](C(=O)OC)(c1cc3c(cc1OC)N(C)[C@H]1[C@@](O)(C(=O)OC)[C@H](OC(C)=O)[C@]4(CC)C=CCN5CC[C@]31[C@@H]54)C2 [Vinorelbine tartrate]	HT29 RAMS11 overexpressing cells	Viability Fold Change	1.194

Lab note: next molecule to report on.
Item CC[C@@]1(O)C(=O)OCc2c1cc1n(c2=O)Cc2cc3c(CN(C)C)c(O)ccc3nc2-1 [Topotecan HCL] has what recorded Viability Fold Change?
2.225
